# assay.context: human gut metagenome, 24 h, 2 µM; note: call rule not given here

{"compound": "Fc1ccc([C@@H]2CCNC[C@H]2COc2ccc3c(c2)OCO3)cc1", "Bacterial Biotransformation": "Compound NOT metabolized"}
{"compound": "CCOC(=O)[C@H](CCc1ccccc1)N[C@@H](C)C(=O)N1[C@H](C(=O)O)C[C@@H]2CCC[C@@H]21", "Bacterial Biotransformation": "Compound metabolized"}
{"compound": "COc1cc2nc(N(C)CCCNC(=O)C3CCCO3)nc(N)c2cc1OC (stereo not drawn)", "Bacterial Biotransformation": "Compound metabolized"}
{"compound": "COc1ccc2[nH]c([S+]([O-])Cc3ncc(C)c(OC)c3C)nc2c1 (stereo not drawn)", "Bacterial Biotransformation": "Compound metabolized"}
{"compound": "CN(C)CC(c1ccc(O)cc1)C1(O)CCCCC1.O=C(O)CCC(=O)O (stereo not drawn) [DESVENLAFAXINE SUCCINATE]", "Bacterial Biotransformation": "Compound NOT metabolized"}
{"compound": "C[C@@H]1C[C@H]2[C@@H]3CCC4=CC(=O)C=C[C@]4(C)[C@@]3(F)[C@@H](O)C[C@]2(C)[C@@]1(O)C(=O)CO", "Bacterial Biotransformation": "Compound NOT metabolized"}
{"compound": "CC(C)NCC(O)COc1ccc(COCCOC(C)C)cc1.CC(C)NCC(O)COc1ccc(COCCOC(C)C)cc1.O=C(O)/C=C/C(=O)O (stereo not drawn) [BISOPROLOL FUMARATE]", "Bacterial Biotransformation": "Compound metabolized"}
{"compound": "O=C(Nc1ccccc1)OCC(CN1CCCCC1)OC(=O)Nc1ccccc1 (stereo not drawn)", "Bacterial Biotransformation": "Compound NOT metabolized"}
{"compound": "COCCc1ccc(OCC(O)CNC(C)C)cc1.COCCc1ccc(OCC(O)CNC(C)C)cc1.O=C(O)C(O)C(O)C(=O)O (stereo not drawn) [METOPROLOL TARTRATE]", "Bacterial Biotransformation": "Compound NOT metabolized"}
{"compound": "CNS(=O)(=O)Cc1ccc2[nH]cc(CCN(C)C)c2c1.O=C(O)CCC(=O)O [SUMATRIPTAN SUCCINATE]", "Bacterial Biotransformation": "Compound NOT metabolized"}
{"compound": "CCN(CC)CC#CCOC(=O)C(O)(c1ccccc1)C1CCCCC1.Cl (stereo not drawn) [OXYBUTYNIN CHLORIDE]", "Bacterial Biotransformation": "Compound metabolized"}
{"compound": "CC(C)OC(=O)C(C)(C)Oc1ccc(C(=O)c2ccc(Cl)cc2)cc1 [FENOFIBRATE]", "Bacterial Biotransformation": "Compound metabolized"}
{"compound": "CCCc1nc(C(C)(C)O)c(C(=O)OCc2oc(=O)oc2C)n1Cc1ccc(-c2ccccc2-c2nnn[nH]2)cc1", "Bacterial Biotransformation": "Compound NOT metabolized"}

---

# assay.context: human gut metagenome, 24 h, 2 µM

{"molecule": "Cc1cc2c(cc1S(N)(=O)=O)S(=O)(=O)CCC2", "Bacterial Biotransformation": "Compound NOT metabolized"}
{"molecule": "CC(=O)OCC(=O)[C@@]12N=C(C)O[C@@H]1C[C@H]1[C@@H]3CCC4=CC(=O)C=C[C@]4(C)[C@H]3[C@@H](O)C[C@@]12C", "Bacterial Biotransformation": "Compound metabolized"}
{"molecule": "Br.CN(C)CCCC1(c2ccc(F)cc2)OCc2cc(C#N)ccc21 (centres undefined) [CITALOPRAM HYDROBROMIDE]", "Bacterial Biotransformation": "Compound metabolized"}
{"molecule": "O=C(O)CCc1nc(-c2ccccc2)c(-c2ccccc2)o1", "Bacterial Biotransformation": "Compound metabolized"}
{"molecule": "CCCCCOC(=O)Nc1nc(=O)n([C@@H]2O[C@H](C)[C@@H](O)[C@H]2O)cc1F", "Bacterial Biotransformation": "Compound metabolized"}
{"molecule": "CC(C(=O)O)c1ccc2c(c1)Cc1cccnc1O2 (centres undefined)", "Bacterial Biotransformation": "Compound metabolized"}
{"molecule": "CCN(CC)CCOC(=O)C(Cc1cccc2ccccc12)CC1CCCO1.O=C(O)C(=O)O (centres undefined) [NAFRONYL OXALATE]", "Bacterial Biotransformation": "Compound metabolized"}
{"molecule": "COc1ccc2c(c1OC)C(=O)O[C@@H]2[C@H]1c2c(cc3c(c2OC)OCO3)CCN1C", "Bacterial Biotransformation": "Compound NOT metabolized"}
{"molecule": "COc1ccc2[nH]c([S+]([O-])Cc3ncc(C)c(OC)c3C)nc2c1 (centres undefined)", "Bacterial Biotransformation": "Compound metabolized"}

---

# assay.context: human gut metagenome, 24 h, 2 µM

{"molecule": "CN1C(=O)CC(C)(c2ccccc2)C1=O (stereo unspecified) [METHSUXIMIDE]", "Bacterial Biotransformation": "Compound NOT metabolized"}
{"molecule": "C[C@@H]1CC[C@H]2[C@@H](C)C(=O)O[C@@H]3O[C@@]4(C)CC[C@@H]1[C@]32OO4", "Bacterial Biotransformation": "Compound metabolized"}
{"molecule": "C#C[C@]1(O)CC[C@H]2[C@@H]3CCC4=CC(=O)CC[C@@H]4[C@H]3CC[C@@]21CC", "Bacterial Biotransformation": "Compound metabolized"}
{"molecule": "CN(C(=O)CN(CCO)CC(=O)N(C)C(C)(C)Cc1ccccc1)C(C)(C)Cc1ccccc1", "Bacterial Biotransformation": "Compound metabolized"}
{"molecule": "CC(=O)OCC(=O)[C@@]1(O)[C@@H](C)C[C@H]2[C@@H]3CCC4=CC(=O)C=C[C@]4(C)[C@@]3(F)[C@@H](O)C[C@@]21C [BETAMETHASONE ACETATE]", "Bacterial Biotransformation": "Compound metabolized"}
{"molecule": "CCCCC1=NC2(CCCC2)C(=O)N1Cc1ccc(-c2ccccc2-c2nnn[nH]2)cc1", "Bacterial Biotransformation": "Compound metabolized"}
{"molecule": "CN(C)CCC=C1c2ccccc2C=Cc2ccccc21", "Bacterial Biotransformation": "Compound NOT metabolized"}
{"molecule": "COc1cc2c(c(OC)c1OC)-c1ccc(OC)c(=O)cc1[C@@H](NC(C)=O)CC2", "Bacterial Biotransformation": "Compound metabolized"}
{"molecule": "CCc1nc(N)nc(N)c1-c1ccc(Cl)cc1", "Bacterial Biotransformation": "Compound NOT metabolized"}
{"molecule": "CN1CCN(C(=O)O[C@H]2c3nccnc3C(=O)N2c2ccc(Cl)cn2)CC1", "Bacterial Biotransformation": "Compound NOT metabolized"}
{"molecule": "COc1ccc2c3c1O[C@H]1C[C@@H](O)C=C[C@@]31CCN(C)C2", "Bacterial Biotransformation": "Compound NOT metabolized"}

---

# assay.context: human gut metagenome, 24 h, 2 µM

{"compound": "CC(Oc1c(Cl)cccc1Cl)C1=NCCN1 (centres undefined)", "Bacterial Biotransformation": "Compound metabolized"}
{"compound": "CC(CN1c2ccccc2Sc2ccccc21)N(C)C (centres undefined)", "Bacterial Biotransformation": "Compound metabolized"}
{"compound": "CC(CN(C)C)CN1c2ccccc2CCc2ccccc21.O=C(O)/C=C\\C(=O)O (centres undefined) [TRIMIPRAMINE MALEATE]", "Bacterial Biotransformation": "Compound metabolized"}
{"compound": "CS(=O)(=O)O.O.O.O.O=C1Cc2cc(CCN3CCN(c4nsc5ccccc45)CC3)c(Cl)cc2N1 [ZIPRASIDONE MESYLATE]", "Bacterial Biotransformation": "Compound metabolized"}
{"compound": "Cc1nc2n(c(=O)c1CCN1CCC(c3noc4cc(F)ccc34)CC1)CCCC2", "Bacterial Biotransformation": "Compound metabolized"}
{"compound": "CN1CCN(C2=Nc3cc(Cl)ccc3Nc3ccccc32)CC1", "Bacterial Biotransformation": "Compound metabolized"}
{"compound": "COc1ccccc1N1CCN(CC(O)COc2cccc3ccccc23)CC1 (centres undefined)", "Bacterial Biotransformation": "Compound NOT metabolized"}
{"compound": "CC(C)(C(=O)O)c1ccc(C(O)CCCN2CCC(C(O)(c3ccccc3)c3ccccc3)CC2)cc1 (centres undefined) [FEXOFENADINE]", "Bacterial Biotransformation": "Compound NOT metabolized"}
{"compound": "CC(C)OC(=O)C(C)(C)Oc1ccc(C(=O)c2ccc(Cl)cc2)cc1 [FENOFIBRATE]", "Bacterial Biotransformation": "Compound metabolized"}

---

# test.method.notes: The drug is tested on WLS-027 corresponding to human gut metagenome with ENA study accession number: PRJEB37062 and ENA sample accession number: ERS12561744 for biotransformation under anaerobic condition. The drug concentrations were measured over 9 timepoints collected between 0 and 24 hours of incubation by liquid-chromatography-coupled mass spectrometry (LC–MS)
# assay.context: 2 µM
observable: Bacterial Biotransformation

{"molecule": "CC(C)NCC(O)COc1ccc(CCOCC2CC2)cc1 (stereo unspecified)", "observable": "Bacterial Biotransformation", "observed.result": "Compound NOT metabolized"}
{"molecule": "C[C@@H](CO)NC(=O)[C@@H]1C=C2c3cccc4[nH]cc(c34)C[C@H]2N(C)C1.O=C(O)/C=C\\C(=O)O [ERGONOVINE MALEATE]", "observable": "Bacterial Biotransformation", "observed.result": "Compound metabolized"}
{"molecule": "CCN(CC)CCNC(C(=O)OCCC(C)C)c1ccccc1.Cl.Cl (stereo unspecified)", "observable": "Bacterial Biotransformation", "observed.result": "Compound metabolized"}
{"molecule": "CN1C(C(=O)Nc2ccccn2)=C(O)c2sccc2S1(=O)=O", "observable": "Bacterial Biotransformation", "observed.result": "Compound NOT metabolized"}
{"molecule": "COc1cc2nc(N(C)CCCNC(=O)C3CCCO3)nc(N)c2cc1OC (stereo unspecified)", "observable": "Bacterial Biotransformation", "observed.result": "Compound NOT metabolized"}
{"molecule": "Cc1nc(-c2ccc(OCC(C)C)c(C#N)c2)sc1C(=O)O", "observable": "Bacterial Biotransformation", "observed.result": "Compound metabolized"}
